pIC50 for assorted compounds
- subject.of.test: OX1 (Homo sapiens)
- Sequence (O43613 whole entry): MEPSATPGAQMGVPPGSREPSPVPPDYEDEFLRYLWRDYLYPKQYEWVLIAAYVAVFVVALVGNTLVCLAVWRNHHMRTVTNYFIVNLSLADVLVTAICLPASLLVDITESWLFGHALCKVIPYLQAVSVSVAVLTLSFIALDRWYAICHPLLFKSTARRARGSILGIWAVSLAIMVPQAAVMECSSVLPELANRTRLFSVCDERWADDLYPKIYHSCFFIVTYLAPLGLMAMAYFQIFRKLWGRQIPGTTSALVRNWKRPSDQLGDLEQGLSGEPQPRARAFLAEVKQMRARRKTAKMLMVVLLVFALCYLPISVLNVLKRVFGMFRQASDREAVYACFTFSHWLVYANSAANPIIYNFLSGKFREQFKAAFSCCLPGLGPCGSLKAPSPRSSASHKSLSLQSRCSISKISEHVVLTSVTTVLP
- assay.method.text: Measurement of orexin receptor-binding ability ([125I]-OX-A, cell membranes, OX1)
- Parameters: expressed in transfected cells; host or cells: CHO cells (membrane preparation)
- study.conditions: membranes of recombinant CHO cells expressing OX1, 0.2 nM [125I]-OX-A; read-out: OX1 (IC50)
- Description: 1. Measurement of Orexin Receptor-Binding Ability The assay was carried out using a 96-well Wheat Germ Agglutinin Flash Plate (PerkinElmer). The volume in a single assay well was 100 ul, and the composition of the reaction solution was as follows: […] Cell membranes were prepared from recombinant CHO cells that expressed OX2 or OX1. […] Finally, the radioactivity of each well was measured using a scintillation counter (TopCount, PerkinElmer).
As a rule, pIC50 stands for the negative log10 of the concentration, concentration in M.

COCc1nc(C)ncc1OC[C@@]1(c2cc(F)cc(OC)c2)C[C@H]1C(=O)Nc1ccc(F)c(F)c1 :: 9.00
COc1cc(NC(=O)[C@@H]2C[C@@]2(COc2cnc(C)nc2C)c2ccc(F)cc2)ncc1F :: 8.40
Cc1ncc(OC[C@@]2(c3ccccc3)C[C@H]2C(=O)Nc2cccc(CC#N)c2)c(C)n1 :: 6.45
Cc1ncc(OC[C@@]2(c3ccccc3)C[C@H]2C(=O)Nc2ccccc2)c(C)n1 :: 7.13
Cc1ncc(OC[C@@]2(c3ccccc3)C[C@H]2C(=O)Nc2ccc(F)c(C#N)c2)c(C)n1 :: 7.70

q: Determine its reported pIC50: Cc1ncc(N(C)C[C@@]2(c3ccccc3)C[C@H]2C(=O)Nc2ccc(F)cc2)c(C)n1
a: 6.31

q: Determine its reported pIC50: Cc1ncc(CC[C@@]2(c3ccccc3)C[C@H]2C(=O)Nc2cc(C)c(F)cn2)c(C)n1
a: 6.62

q: Determine its reported pIC50: Cc1ncc(OC[C@@]2(c3ccccc3)C[C@H]2C(=O)Nc2cc3ccccc3cn2)c(C)n1
a: 7.43

q: Determine its reported pIC50: Cc1ncc(OC[C@@]2(c3ccccc3)C[C@H]2C(=O)Nc2cccc(-c3nnc[nH]3)c2)c(C)n1
a: 6.29

q: Determine its reported pIC50: Cc1ncc(OCC2(c3cccc(C(F)(F)F)c3)CC2C(=O)Nc2cccnc2)c(C)n1 (centres unmarked)
a: 5.65

q: Determine its reported pIC50: CCc1nc(C)ncc1OC[C@@]1(c2ccc(F)cc2)C[C@H]1C(=O)Nc1cc(Cl)ccn1
a: 7.66

q: Determine its reported pIC50: COCc1nc(C)ncc1OC[C@@]1(c2cccc(F)c2)C[C@H]1C(=O)Nc1ccc(F)cc1F
a: 8.05

q: Determine its reported pIC50: COc1cccc(NC(=O)[C@@H]2C[C@@]2(COc2cnc(C)nc2C)c2ccccc2)c1
a: 8.05

q: Determine its reported pIC50: Cc1ncc(OC[C@@]2(c3cccc(F)c3)C[C@H]2c2nc3ccccc3c(=O)[nH]2)c(C)n1
a: 7.40
